- experimental.protocol: In vivo rat tracer distribution and brain uptake (LC-MS/MS)
- Design: species or system Sprague-Dawley rats
- condition.details: Sprague-Dawley, plasma, iv, 10 μg/kg i.v., 40 min, read-out: Mean tracer conc (plasma) ± SEM
- Protocol: Stock Formulation: Prepare a tracer stock solution at 0.5 mg/mL in 25% HP-BCD/PW (corrected for salt weight). Vortex thoroughly for 30 sec and place in bath sonication for 30 mins. Confirm the stock formulation is a clear solution or homogeneous suspension. […] ACN containing 0.1% HCOOH is added to each tissue sample at a volume of four times the weight of the tissue sample (e.g., Add 600 μL ACN to a 150 mg brain tissue). […] This solution is mixed thoroughly and analyzed via LC/MS/MS for tracer compound. […]
reported.endpoint: concentration at 40 min (ng/mL)

>>> df
                                   molecule        reported_endpoint  result_value
0  Cc1cc(N2CC(F)C2)cc(OCc2ccc([C@@H](C)[C@@]3(C)C(=O)NC[C@@H]3CF)cc2)n1 [Example 3]  concentration at 40 min          0.73
1  Cc1cc(N2CC(F)C2)cc(OCc2ccc([C@@H](C)[C@@]3(C)C(=O)NC[C@@H]3C)cc2)n1 [Example 2]  concentration at 40 min          1.03
2  Cc1cc(N2CCC2)cc(OCc2ccc([C@@H](C)[C@@]3(C)C(=O)NC[C@@H]3CF)cc2)n1 [Example 1]  concentration at 40 min          0.48

* * *

- experimental.protocol: In vivo rat tracer distribution and brain uptake (LC-MS/MS)
- Design: species or system Sprague-Dawley rats
- condition.details: Sprague-Dawley, frontal cortex, iv, 10 μg/kg i.v., 5 min, read-out: Mean tracer concentration ± SEM, Frontal Cortex
Recorded concentration at 5 min, one value per entry.
reported.endpoint: concentration at 5 min (ng/g)

>>> df
                                        smi  unit_of_measurement  result_value
0  Cc1cc(N2CC(F)C2)cc(OCc2ccc([C@@H](C)[C@@]3(C)C(=O)NC[C@@H]3C)cc2)n1                 ng/g          9.48
1  Cc1cc(N2CC(F)C2)cc(OCc2ccc([C@@H](C)[C@@]3(C)C(=O)NC[C@@H]3CF)cc2)n1                 ng/g          3.55
2  Cc1cc(N2CCC2)cc(OCc2ccc([C@@H](C)[C@@]3(C)C(=O)NC[C@@H]3CF)cc2)n1                 ng/g          4.19

* * *

- experimental.protocol: In vivo rat tracer distribution and brain uptake (LC-MS/MS)
- Set-up: species or system Sprague-Dawley rats
- condition.details: Sprague-Dawley, cerebellum, iv, 10 μg/kg i.v., 40 min, read-out: Mean tracer concentration ± SEM, Cerebellum
Measured concentration at 40 min, listed per entry.
reported.endpoint: concentration at 40 min (ng/g)

                                        smi        reported_endpoint  result_value
0  Cc1cc(N2CC(F)C2)cc(OCc2ccc([C@@H](C)[C@@]3(C)C(=O)NC[C@@H]3C)cc2)n1  concentration at 40 min          0.88
1  Cc1cc(N2CC(F)C2)cc(OCc2ccc([C@@H](C)[C@@]3(C)C(=O)NC[C@@H]3CF)cc2)n1  concentration at 40 min          0.31
2  Cc1cc(N2CCC2)cc(OCc2ccc([C@@H](C)[C@@]3(C)C(=O)NC[C@@H]3CF)cc2)n1  concentration at 40 min          0.28
